- system-under-test: CXCR3 (Homo sapiens, UniProt P49682)
- Construct: host or cells: CHO-K1 (cAMP Hunter CHOK1 CXCR3 Gi cell line)
- Sequence (P49682 1-368): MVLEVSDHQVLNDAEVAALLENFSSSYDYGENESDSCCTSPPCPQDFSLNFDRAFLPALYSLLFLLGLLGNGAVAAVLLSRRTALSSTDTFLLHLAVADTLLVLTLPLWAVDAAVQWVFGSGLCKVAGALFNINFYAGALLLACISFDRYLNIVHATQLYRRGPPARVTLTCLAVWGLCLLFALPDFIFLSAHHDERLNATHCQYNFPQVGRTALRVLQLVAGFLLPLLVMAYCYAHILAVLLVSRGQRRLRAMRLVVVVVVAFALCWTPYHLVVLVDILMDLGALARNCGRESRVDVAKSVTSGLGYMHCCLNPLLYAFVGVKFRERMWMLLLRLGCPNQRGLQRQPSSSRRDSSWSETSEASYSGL
- assay: CXCR3 cAMP agonist assay (cAMP Hunter CHOK1 CXCR3 Gi cell line, forskolin-stimulated, HitHunter cAMP detection)
- Type: cell-based
- condition-details: cAMP Hunter CHOK1 CXCR3 Gi cells, 20 μM forskolin, 30 minutes; read-out: Activity (CXCR3 cAMP agonist assay compound EC50)
Documented EC50 across a set of compounds

As a guide, the following entries are already answered.
compound: Cc1cc(NC(=O)C(NC(=O)[C@@H]2Cc3ccccc3CN2C(=O)CCC(=O)c2ccccc2)C2CCNCC2)ccc1Cl (mixture of isomers)
value-measured: > 500 nM

compound: Cc1c(Cl)ccc(NC(=O)[C@H](CCN)NC(=O)[C@@H]2Cc3ccccc3CN2C(=O)CCC(=O)N2CCCCC2(C)C)c1Cl
value-measured: < 50 nM

compound: CN(C(=O)CCC(=O)N1Cc2ccccc2C[C@H]1C(=O)N[C@@H](CCN)C(=O)Nc1ccc(Cl)c(Cl)c1F)C1CCC1
value-measured: 50 to 250 nM

compound: O=C(CCC(=O)N1Cc2ccccc2C[C@H]1C(=O)N[C@@H](CCN1CC(F)(F)C1)C(=O)Nc1ccc2c(c1)CCC2)c1ccccc1
value-measured: 50 to 250 nM

compound: Cc1cc(NC(=O)[C@H](CCN)NC(=O)[C@@H]2Cc3ccccc3CN2C(=O)CCC(=O)N2CC(C)C(C)C2)ccc1Cl (stereo partly drawn)
value-measured: < 50 nM

Tested on CXCR3 (Homo sapiens, UniProt P49682), the item NCC[C@H](NC(=O)[C@@H]1Cc2ccccc2CN1C(=O)CCC(=O)c1ccccc1)C(=O)Nc1cccc(C(F)(F)F)c1 showed EC50 equal to 50 to 250 nM
